# test.system: UniProt:P05177
# Sequence (P05177 whole entry): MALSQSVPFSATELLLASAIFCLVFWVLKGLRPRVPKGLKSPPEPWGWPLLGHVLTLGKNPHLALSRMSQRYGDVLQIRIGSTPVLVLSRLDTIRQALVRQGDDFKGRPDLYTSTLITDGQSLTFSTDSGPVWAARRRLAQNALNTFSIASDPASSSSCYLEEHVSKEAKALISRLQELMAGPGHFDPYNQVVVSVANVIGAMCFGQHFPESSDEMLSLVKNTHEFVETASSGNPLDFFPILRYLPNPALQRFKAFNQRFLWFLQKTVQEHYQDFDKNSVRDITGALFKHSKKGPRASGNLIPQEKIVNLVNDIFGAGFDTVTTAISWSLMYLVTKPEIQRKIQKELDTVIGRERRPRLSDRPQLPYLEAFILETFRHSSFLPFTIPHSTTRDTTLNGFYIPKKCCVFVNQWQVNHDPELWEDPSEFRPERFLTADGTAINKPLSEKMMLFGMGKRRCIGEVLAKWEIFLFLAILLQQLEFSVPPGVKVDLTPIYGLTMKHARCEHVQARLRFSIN
pIC50: −log10 of the molar value.
result.type: pIC50

Prompt: Give pIC50; test system UniProt:P05177; compound `Cc1cccc(Cn2nc(C)c3c(NC(=O)c4csc5c(N)ncnc45)cccc32)n1`
Completion: < 4.70

----------
# Tested on: NFS-60
# experiment.notes: Growth inhibition of mouse NFS60 cells after 72 hrs by CellTiter96 AQueous one solution cell proliferation assay
# Assay type: functional
# measurement.setup: NFS-60, 72 h
result.type: GI50 (nM)
Dear colleague, please return just the value in nM, with no unit written.

Reference set (3 entries):
[
  {
    "smiles.str": "Nc1ncnc2c(C(=O)Nc3cccc4c3c(Br)nn4Cc3cccnc3)csc12",
    "test.system": "NFS-60",
    "result.type": "GI50",
    "quantitative.readout": 77
  },
  {
    "smiles.str": "Nc1ncnc2c(C(=O)Nc3cccc4c3c(Br)nn4CC3CCCCC3)csc12",
    "test.system": "NFS-60",
    "result.type": "GI50",
    "quantitative.readout": 254
  },
  {
    "smiles.str": "Cc1cccc(Cn2nc(I)c3c(NC(=O)c4csc5c(N)ncnc45)cccc32)n1",
    "test.system": "NFS-60",
    "result.type": "GI50",
    "quantitative.readout": 30
  }
]

Prompt: Specify reported GI50 for the compound shown: `Cc1cccc(Cn2nc(Cl)c3c(NC(=O)c4csc5c(N)ncnc45)cccc32)n1`
Completion: 8
